Measured values drawn from ChEMBL document CHEMBL1201862 for this set.

Tested on: SNB-19
test description: NCI tumour cell line growth inhibition, 48 h
Activity calls are given as the source filed them. Rule as the data show it: active = GI50 up to about 1.1 µM and inactive = higher.
observed property: GI50

Some solved entries appear below for comparison.
{"compound": "CCOc1ccc(NC(=O)C(=O)C(C(=O)c2ccc3ccccc3c2)C2OC(=O)c3ccccc32)cc1 (stereo not given)", "readout value": "9.62 µM (inactive)"}
{"compound": "O=C(C[C@H](NC(=O)OCc1ccccc1)C(=O)NC1Cc2ccccc2OC1=O)OCc1ccccc1 (stereo not given in full)", "readout value": "> 100 µM (inactive)"}
{"compound": "Cc1nc2nnc(C)n2c2c1C(=O)Nc1ccccc1N2", "readout value": "> 100 µM (inactive)"}
{"compound": "Cc1ccc(O)c(-c2cc(-c3cccc(Br)c3)c(C#N)c(N)n2)c1", "readout value": "19.3 µM (inactive)"}

Which GI50 is reported with SNB-19 for this entry: "CC(=O)[C@@]1(O)CC[C@H]2[C@@H]3C[C@H](C)C4=CC(=O)CC[C@]4(C)[C@H]3[C@@H](O)C[C@@]21C" ?
> 100 µM (inactive)

###

Tested on: RXF 393
test description: NCI tumour cell line growth inhibition, 48 h
Activity calls are given as the source filed them. No stated cut-off is given here; in the data, active = GI50 up to about 1.1 µM and inactive = higher.
// one of 1 (active), -1 (inactive), no free text

{"compound": "CN(C)c1ccc(/C=C(\\NC(=O)c2ccccc2)c2nc3cncnc3[nH]2)cc1", "system under test": "RXF 393", "group label": -1}
{"compound": "NCC1CCN(c2nc3ccccc3c3c2CCCC3)CC1", "system under test": "RXF 393", "group label": -1}
{"compound": "CCOC(=O)C12CCSC1C1(C#N)C(C#N)=CC2(N=P(c2ccccc2)(c2ccccc2)c2ccccc2)n2c(=O)n(-c3ccccc3)c(=O)n21 (stereo not drawn)", "system under test": "RXF 393", "group label": -1}
{"compound": "CCCCCCCCCCCCCCCCCCNc1ccn(C2OC(COP(=O)(O)OCC(COP(=O)(O)OCC3OC(n4cc(C)c(=O)[nH]c4=O)CC3N=[N+]=[N-])OCCCCCCCCCCCCCCCCCC)C(O)C2O)c(=O)n1 (stereo not drawn)", "system under test": "RXF 393", "group label": -1}
{"compound": "COC(=O)NC(Nc1ccccn1)(C(F)(F)F)C(F)(F)F", "system under test": "RXF 393", "group label": -1}
{"compound": "COc1ccc2cc(NC(=O)N/N=C\\c3ccc([N+](=O)[O-])cc3)ccc2c1", "system under test": "RXF 393", "group label": -1}

Attention now shifts to the item below.
What outcome does the record of this test show for "CC(C)(CN1CCOCC1)C(=O)/C=C/c1ccc(/C=C/C(=O)C(C)(C)CN2CCOCC2)cc1" ?
-1

###

Tested on: IGROV-1
test description: NCI tumour cell line growth inhibition, 48 h
The source made the active and inactive calls. Rule as the data show it: active = GI50 up to about 1.1 µM and inactive = higher.
Would you mind answering with one of these outcomes? active, inactive

Use the examples below as a reference point.
{"compound": "c1cnc2c(c1)Nc1cnncc1S2", "system under test": "IGROV-1", "group label": "inactive"}
{"compound": "Nc1cc(C2CCCc3c2[nH]c2ccccc32)ccc1O (centres undefined)", "system under test": "IGROV-1", "group label": "inactive"}
{"compound": "O=S1(=O)OCCOS(=O)(=O)C1(I)I", "system under test": "IGROV-1", "group label": "inactive"}
{"compound": "NC(CNO)C(=O)O (centres undefined)", "system under test": "IGROV-1", "group label": "inactive"}
{"compound": "N=C(N)NS(=O)(=O)c1ccc(NCc2cccc3c(=O)c4ccc(Cl)cc4oc23)cc1", "system under test": "IGROV-1", "group label": "inactive"}
{"compound": "CC(C)C(C/C=C1/CC(CO)(COC(=O)c2ccccc2)OC1=O)C(C)C (centres undefined)", "system under test": "IGROV-1", "group label": "inactive"}
{"compound": "CN(Cc1cnc2nc(N)nc(N)c2n1)c1ccc(C(=O)NC(CCC(=O)O)C(=O)O)cc1C(F)(F)F (centres undefined)", "system under test": "IGROV-1", "group label": "active"}
{"compound": "CCC(CCC(C)C1CCC2C3CC=C4CC(OC5OC(CO)C(O)C(O)C5O)CCC4(C)C3CCC12C)C(C)C (centres undefined)", "system under test": "IGROV-1", "group label": "inactive"}

Moving on to the next compound.
Look up the recorded call for "Cc1nc(Nc2ccccc2)sc1C(=O)CC(=O)C(=O)NC12CC3CC(CC(C3)C1)C2" in this test.
inactive

###

System: M19-MEL
test description: NCI tumour cell line growth inhibition, 48 h
Activity calls are given as the source filed them. Rule as the data show it: active = GI50 up to about 1.1 µM and inactive = higher.
Field: GI50. Provide a value for each of the compounds that follow.

Please look at the items below and tell me GI50 for each one, in order.
1. CNC(=O)C(C)Oc1ccc(OCC2CCCCC2)cc1 (stereo not given)
2. CCOC(=O)C1=C(C)N(NC(=O)Nc2ccccc2)C2(N)N(NC(=O)Nc3ccccc3)C(C)=C(C(=O)OCC)C12C#N (stereo not given)

> 100 µM (inactive)
17.8 µM (inactive)

###

System: SNB-19
test description: NCI tumour cell line growth inhibition, 48 h
The source made the active and inactive calls. No stated cut-off is given here; in the data, active = GI50 up to about 1.1 µM and inactive = higher.
observed property: GI50

Solved entries:
{"compound": "O=C(O)CC(NC(=O)Nc1ccc([N+](=O)[O-])cc1)C(=O)Nc1ccc([N+](=O)[O-])cc1 (stereo unspecified)", "system under test": "SNB-19", "GI50": "> 100 µM (inactive)"}
{"compound": "COc1cccc2c1[C@]1(O)C(O)CCCC21 (stereo partly specified)", "system under test": "SNB-19", "GI50": "> 100 µM (inactive)"}
{"compound": "O=C(NNCC(F)(F)F)c1ccncc1", "system under test": "SNB-19", "GI50": "> 100 µM (inactive)"}
{"compound": "COC(=O)CC(c1cn(S(=O)(=O)c2ccc(C)cc2)c2ccccc12)C1C[C@@H](C(=O)OC)N(C(=O)OC(C)(C)C)C1=O (stereo partly specified)", "system under test": "SNB-19", "GI50": "> 100 µM (inactive)"}
{"compound": "O=C(/C=C/c1ccc(O)cc1)c1cc(Cl)ccc1O", "system under test": "SNB-19", "GI50": "44.9 µM (inactive)"}

# ---- query compound ----
Field: GI50 (SNB-19). Entry: COc1ccc2c(c1)CCCN1CCc3cc(OC)c(OC)cc3C21 (stereo unspecified)
> 100 µM (inactive)

###

Reported GI50, HCT-15.

Known results for molecules:
{"molecule": "O=C(O)C1CC=CCC1C(=O)Nc1cccc(O)c1 (stereo not drawn)", "GI50": "> 100 µM"}
{"molecule": "CN(Cc1cnc2nc(N)nc(N)c2n1)c1ccc(C(=O)NC(CCC(=O)O)C(=O)O)cc1C(F)(F)F (stereo not drawn)", "GI50": "< 0.01 µM"}
{"molecule": "NC1=Nc2ccccc2Sc2ccccc21", "GI50": "> 100 µM"}
{"molecule": "CNC(=O)C(C)Oc1ccc(OCC2CCCCC2)cc1 (stereo not drawn)", "GI50": "> 100 µM"}
{"molecule": "O=C(O)c1ccc(Nc2nc3cc(C(F)(F)F)ccc3nc2C(=O)O)cc1", "GI50": "> 100 µM"}

Provide GI50 values for the following items, in order.
1. CNC(=O)NCCCCC(NC(=O)OCc1ccccc1)C(=O)OCc1ccccc1 (stereo not drawn)
2. COC(=O)NC(Nc1ccccn1)(C(F)(F)F)C(F)(F)F
3. COC(=O)CCCc1c(-c2[nH]c3ccccc3c2CCCC(=O)OC)[nH]c2ccccc12
4. Cn1c(=O)c2nc(CCCCC(=O)O)[nH]c2n(C)c1=O
5. COc1ccc(/C(=N/Nc2ccccc2)C(c2ccc(OC)cc2)C2OC(=O)c3ccccc32)cc1 (stereo not drawn)
6. CCOc1ccc(NC(=O)C(=O)CC(=O)c2sc(NNC(C)=O)nc2C)cc1
7. NCCNc1cccc2ccccc12
8. CCCN1CN(C(C(=O)N[C@@H]2C(=O)N3C(C(=O)O)=C(C)CSC23)c2ccc(O)cc2)CSC1=S (stereo partly drawn)

1. > 100 µM
2. > 100 µM
3. > 100 µM
4. > 100 µM
5. > 100 µM
6. > 100 µM
7. > 100 µM
8. > 100 µM

Give GI50 for each of the items listed below.
1. COC(=O)C1(Cc2ccccc2)Cc2c(C)ccc(C)c2C1=O (stereo not drawn)
2. O=C1N(Cl)C(=O)C(c2ccc(Cl)cc2)(c2ccc(Cl)cc2)N1Cl
3. CC1(C)OCC(C2OC3OC(C)(C)OC3C2N)O1 (stereo not drawn)
4. CC1(C)N=C(N)N=C(N)N1c1cccc(Cl)c1
5. Cc1nc(Nc2ccccc2)sc1C(=O)CC(=O)C(=O)NC12CC3CC(CC(C3)C1)C2
6. CN(c1cn(C2CC[C@@H](CO)O2)c(=O)[nH]c1=O)C1CCCCC1 (stereo partly drawn)
7. Cc1ccc(NC(=O)CSc2nnc(Cc3ccccc3)o2)c(C)c1
8. OC1CC1Sc1ccccc1 (stereo not drawn)

1. 31 µM
2. 91.8 µM
3. > 100 µM
4. 10.5 µM
5. > 100 µM
6. > 100 µM
7. > 100 µM
8. 36.7 µM
